- Tested on: MDA-MB-435
- assay_method_text: NCI tumour cell line growth inhibition, 48 h
measured_parameter: GI50

Solved entries:
>  <smiles>
COC(=O)[C@H](Cc1cn(C)cn1)NC(=O)[C@H](C)NC(=O)Nc1cc(C(F)(F)F)cc(C(F)(F)F)c1

>  <GI50>
> 10 µM

$$$$
>  <smiles>
COc1cnc2c(c1)C(=O)c1c-2n(CCCN2CCC(O)CC2)c(=O)c2cc(Cl)ccc12

>  <GI50>
12.9 µM

$$$$
>  <smiles>
COc1cc(C)c2sc3ccccc3c(=O)c2c1NCCN(C)C

>  <GI50>
2.91 µM

$$$$
>  <smiles>
CN(CCC(=O)/C(=C\c1ccccc1)c1ccc(Cl)cc1)Cc1ccccc1

>  <GI50>
1.83 µM

$$$$
>  <smiles>
COc1ccc(C(=O)c2sc3nc(-c4cccs4)ccc3c2N)cc1OC

>  <GI50>
1.43 µM

$$$$

Record GI50 for all entries; do not skip any.
1. O=[N+]([O-])c1cc([N+](=O)[O-])c(Cl)cc1Cl
2. COc1ccc(-c2csc(NC(=O)CN3CCN(c4cc5c(cc4F)c(=O)c(C(=O)O)cn5C4CC4)CC3)n2)cc1

Completion:
1: 1.61 µM; 2: 3.39 µM

Batch lookup, GI50 per entry.
1. Cn1cc(C2=C(Nc3ccccc3)C(=O)NC2=O)c2ccccc21
2. CC(C)(C)OC(=O)NCc1cccc(N=C=S)c1

Completion:
> 25 µM
18.5 µM

# credit: PubChem BioAssay (NCI)
